Quick reference: IC50 of the listed items.
Tested on: HASMC
assayName: Inhibition of PDGF-induced DNA synthesis in human HASMC assessed as decrease in [3H]thymidine incorporation after 20 hrs by microplate scintillation analysis
Type: functional, cell-based
Value expressed in µM; do not type the unit.

Req: I'm curious: which IC50 was measured for CCCCCCCC/C=C\CCCCCCC[C@H](O)[C@@H](O)[C@H](O)C#CC#CCO tested on HASMC?
Resp: 0.73

Req: I'm curious: which IC50 was measured for CC(C)CCCCCC/C=C\CCCCCCCCC[C@@H](O)C#CC#CCO tested on HASMC?
Resp: 1.1

Req: I'm curious: which IC50 was measured for C#C/C=C\CCCCCCCCCC/C=C\CCCCCCC[C@H](O)[C@@H](O)[C@H](O)C#CC#CCO tested on HASMC?
Resp: 0.72

Req: I'm curious: which IC50 was measured for CC(C)CCCCCC/C=C\CCCCCCC[C@H](O)[C@@H](O)[C@H](O)C#CC#CCO tested on HASMC?
Resp: 0.71

Req: I'm curious: which IC50 was measured for CC(C)CCCCCCC#CCCCCCCCCC[C@@H](O)C#CC#CCO tested on HASMC?
Resp: 2.2

Req: I'm curious: which IC50 was measured for CCCCCCCCC/C=C\CCCCCCC[C@H](O)[C@@H](O)[C@H](O)C#CC#CCO tested on HASMC?
Resp: 0.69
